# experimental_system: MMP-3 (Homo sapiens)
# Construct: All the enzymes are recombinant human active domains from E. coli (Biomol)
# Sequence (P08254 100-272 limits assumed): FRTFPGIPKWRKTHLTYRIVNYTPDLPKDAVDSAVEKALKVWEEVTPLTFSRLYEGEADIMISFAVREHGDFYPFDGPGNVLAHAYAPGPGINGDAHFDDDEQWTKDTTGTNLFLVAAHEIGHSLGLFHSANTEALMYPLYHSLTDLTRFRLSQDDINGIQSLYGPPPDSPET
# assay_protocol: MMP inhibitory assay, fluorescent substrate, MMP-3
# measurement_conditions: recombinant human active domain, substrate 4 uM, room temperature
# Description: The enzymatic activities of MMPs were assayed according to manufacture protocols (Biomol Reseaerch Laboratory, Inc. E-mail: info@biomol.com). All the enzymes are recombinant human active domains from E. coli (Biomol). […] The activity was determined by measuring the fluorescence at Ex/Em=328 nm/393 nm and it was linear within 2 hrs. The fluorescence was read at 0 and 20 or 40 min. The reading at 0 time would be considered as the background and subtracted from the final reading. […]
Provide the reported pIC50 of each item.
In textbook form, pIC50 equals minus log to base ten of the concentration in mol/L.

q: What does the record list as pIC50 for Cc1ccccc1COc1ccc(Sc2ccoc2C2NC(=O)NC2=O)cc1 (stereo not shown) ?
a: 5.39

q: Also check O=C1NC(=O)C(c2occc2Sc2ccc(OCc3ccccc3Cl)cc2)N1 (stereo not shown)
a: 5.96

q: Also check Cc1cccc(COc2ccc(Sc3ccoc3C3NC(=O)NC3=O)cc2)c1 (stereo not shown)
a: 5.87

q: Also check O=C1NC(=O)C(c2occc2Sc2ccc(OCc3ccc(OCc4ccccc4)cc3)cc2)N1 (stereo not shown)
a: 6.42

q: Also check Cc1ccc(COc2ccc(Sc3ccoc3C3NC(=O)NC3=O)cc2)cc1 (stereo not shown)
a: 6.23

q: Also check COc1cccc(COc2ccc(Sc3ccoc3C3NC(=O)NC3=O)cc2)c1 (stereo not shown)
a: 5.44

q: Also check O=C1NC(=O)C(c2occc2Sc2ccc(OCc3ccc(-c4ccccc4)cc3)cc2)N1 (stereo not shown)
a: 4.44

q: Also check COc1ccc(COc2ccc(Sc3ccoc3C3NC(=O)NC3=O)cc2)cc1 (stereo not shown)
a: 6.50

q: Also check O=C1NC(=O)C(c2occc2Sc2ccc(OCc3ccc(Cl)cc3)cc2)N1 (stereo not shown)
a: 6.80

q: Also check O=C1NC(=O)C(c2occc2Sc2ccc(OCc3cccc(C(F)(F)F)c3)cc2)N1 (stereo not shown)
a: 5.48

q: Also check O=C1NC(=O)C(c2occc2Sc2ccc(OCc3ccccc3)cc2)N1 (stereo not shown)
a: 5.68

q: Also check O=C1NC(=O)C(c2occc2Sc2ccc(OCc3cccc(Cl)c3)cc2)N1 (stereo not shown)
a: 6.53

q: Also check COc1cc(COc2ccc(Sc3ccoc3C3NC(=O)NC3=O)cc2)cc(OC)c1 (stereo not shown)
a: 5.10

The origin of these recorded values is patent US7179831B2.
